- Target System: human SCD5 (Homo sapiens (Human), UniProt Q86SK9)
- Sequence (Q86SK9 whole entry): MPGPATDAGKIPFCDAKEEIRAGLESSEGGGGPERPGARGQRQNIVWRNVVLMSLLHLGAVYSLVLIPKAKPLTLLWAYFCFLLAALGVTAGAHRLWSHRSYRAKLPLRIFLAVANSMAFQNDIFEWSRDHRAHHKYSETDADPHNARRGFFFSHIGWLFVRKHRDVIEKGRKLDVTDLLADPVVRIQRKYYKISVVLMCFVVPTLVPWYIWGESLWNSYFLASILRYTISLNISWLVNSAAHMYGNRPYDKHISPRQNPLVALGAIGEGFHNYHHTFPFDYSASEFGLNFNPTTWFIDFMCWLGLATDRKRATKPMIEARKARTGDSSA
- Measurement Protocol: Yeast growth assay, strain expressing human SCD5 as the sole desaturase (reduced growth as surrogate for SCD inhibition)
- Test Context: yeast with OLE1 deleted expressing human SCD5 from a plasmid; growth read as OD600 after 40 h at 30° C.; top drug concentration 33.3 μM
Readout: IC50

Example entries and their recorded answers appear below.
1. Cc1ncc(-c2cc(C(=O)Nc3cnn(Cc4cccc(F)c4)c3)no2)o1 : 7.89 µM
2. COc1ccc(C2CCCN2C(=O)c2cc(-c3ccc4ocnc4c3)on2)cc1 (stereo not drawn) : > 45 µM
3. COc1ccc(C2CCCN2C(=O)c2cc(-c3ccc4c(c3)OCO4)on2)nc1 (stereo not drawn) : > 45 µM
4. COc1cccnc1C1CCCN1C(=O)c1cc(-c2ccc3c(c2)OCO3)on1 (stereo not drawn) : > 45 µM
5. O=C(Nc1cnn(Cc2ccc(Cl)cc2)c1)c1cc(-c2ccco2)on1 : > 45 µM
6. O=C(Nc1cnn(Cc2ccccc2)c1)c1cc(-c2cnsc2)on1 : > 45 µM
7. CN(Cc1cccc(F)c1)C(=O)c1cc(-c2ccccc2)on1 : 15.7 µM
8. O=C(Nc1cnn(Cc2cccc(F)c2)c1)c1cc(-c2ccno2)on1 : > 45 µM

// next item, IC50 requested
Please report the measured IC50 for O=C(c1cc(-c2ccc3c(c2)OCO3)on1)N1CCCC1c1ccc(F)cn1 (stereo not drawn)
> 45 µM

These data points were gathered from patent US10919885B2.
